Would you mind telling me the reported TGI of each entry?
test system: SW-620 colon; experiment: NCI tumour cell line growth inhibition, 48 h

Tell me its TGI given NC(=O)N/N=C/c1ccccc1O as the entry. > 100 µM

Tell me its TGI given O=C1NC(=O)C2(CCc3ccc(N(CCCl)CCCl)cc32)N1 (stereo unspecified) as the entry. 61.9 µM

Tell me its TGI given NC(C(=O)O)c1ccc(C(=O)O)cc1 (stereo unspecified) as the entry. > 100 µM

Tell me its TGI given Cn1c2c(c3c(=O)[nH]ncc31)CCCc1ccccc1-2 as the entry. > 100 µM

Tell me its TGI given COC1=CC(=O)C2C(C1=O)[C@@H]1c3ccccc3OC[C@H]21 (stereo partly specified) as the entry. > 100 µM

Tell me its TGI given Cc1cn(C2CC(O)C(Cn3nncc3Cn3ccc(=O)[nH]c3=O)O2)c(=O)[nH]c1=O (stereo unspecified) as the entry. > 100 µM

Tell me its TGI given CC(=O)c1cccc(NC(=O)/C(=N\NC(=S)NN)C2C(=O)Nc3ccccc3S2=O)c1 (stereo unspecified) as the entry. > 100 µM

Tell me its TGI given COc1ccc(-c2cc(=O)c3cccnc3[nH]2)cc1 as the entry. > 100 µM

Tell me its TGI given CCOC(=O)c1c[nH]c2cc3c(cc2c1=O)CCS3 as the entry. > 100 µM

Tell me its TGI given N=c1oc2ccc(Cl)cc2cc1C(=O)NC1CCCCC1 as the entry. > 100 µM

Tell me its TGI given Nc1cc(N)c2nc(-c3ccccc3)c(Oc3ccc(Cl)c(Cl)c3)nc2c1 as the entry. 30.1 µM

----------
Would you mind telling me the reported TGI of each entry?
test system: OVCAR-5 ovarian; assay: NCI tumour cell line growth inhibition, 48 h

Tell me its TGI given Cc1c(C(=O)Nc2ccc(Cl)cc2)nc(N)nc1-c1cccc(Cl)c1 as the entry. > 100 µM

Tell me its TGI given Nc1nc(Cl)c2ncn(Cc3ccc(-c4ccc(CCl)cc4)cc3)c2n1 as the entry. > 100 µM

Tell me its TGI given O=C(N/N=C/c1cccc(O)c1)c1ccc(C(F)(F)F)nc1Nc1cccc(C(F)(F)F)c1 as the entry. 5.67 µM

Tell me its TGI given C=C1CC(CC(=O)C(C)CC2CC(=C)C(=O)O2)OC1=O (centres undefined) as the entry. > 100 µM

Tell me its TGI given ClCCCN1CCCCC1CCl (centres undefined) as the entry. > 100 µM

Tell me its TGI given CCCNC(=O)c1cc(NC(=O)c2cc(NC(=O)CCS(=O)(=O)OC)cn2C)cn1C as the entry. > 100 µM

Tell me its TGI given O[C@H]1[C@@H]2OC[C@@H](O)[C@H](OCc3ccccc3)[C@@](COCc3ccccc3)(O2)[C@@H]1OCc1ccccc1 as the entry. 30 µM

Tell me its TGI given N=c1oc2ccc(Cl)cc2cc1C(=O)NC1CCCCC1 as the entry. > 100 µM

Tell me its TGI given COC(=O)c1c(OC(C)=O)ccc2c1c1cc3ccccc3c(OC(C)=O)c1n2C as the entry. > 100 µM

----------
tested on: CAKI-1 renal; test: NCI tumour cell line growth inhibition, 48 h
READOUT LABEL: TGI (µM)
Write it as a number; the unit µM goes unstated.

Tell me its TGI given COc1ccc(OC)c(/C=C/C(=O)c2ccc3cc(OC)ccc3c2)c1 as the entry. 10.6

Tell me its TGI given COC(=O)c1c(OC(C)=O)ccc2c1c1cc3ccccc3c(OC(C)=O)c1n2C as the entry. 70.3

Tell me its TGI given N#CC1C(=O)NC(=O)C(C#N)C1c1ccc(Cl)c(Cl)c1 (stereo not given) as the entry. 71.6
